Test: Single-dose pharmacokinetics in dogs (plasma, UHPLC/MS/MS)
Assay type: in vivo, Beagle dogs
Settings: male, Beagle, dog, plasma, po, 12.4 mg/kg
Excerpt: Sixty healthy adult Sprague Dawley rats (180-220 g, half male and female) were purchased from the Guangdong Medical Laboratory Animal Center (Guangzhou, Guangdong, China). Thirty Beagle dogs (10-14 kg, half male and female) were purchased from the […] […] The compounds were detected by multiple reaction monitoring in the negative ion electrospray mode. […] All pharmacokinetic and excretion parameters were expressed as mean ± standard deviation (SD). […]
property: half-life (min)
Answer with a number only, understood to be in min.

Prompt: Report half-life for C[C@@H]1O[C@@H](O[C@H]2[C@H](Oc3cc(O)c4c(c3)O[C@H](c3ccc(O)cc3)CC4=O)O[C@H](CO)[C@@H](O)[C@@H]2O)[C@H](O)[C@H](O)[C@H]1O [naringin, Naringin] please.
Completion: 72

###

assay: Single-dose pharmacokinetics in rats (plasma, UHPLC/MS/MS); assay type: in vivo, Sprague Dawley rats; conditions: female, Sprague Dawley, rat, plasma, po, 42 mg/kg; read-out: Cmax
property: Cmax (ng/mL)
Answer with a number only, understood to be in ng/mL.

Prompt: Report Cmax for C[C@@H]1O[C@@H](O[C@H]2[C@H](Oc3cc(O)c4c(c3)O[C@H](c3ccc(O)cc3)CC4=O)O[C@H](CO)[C@@H](O)[C@@H]2O)[C@H](O)[C@H](O)[C@H]1O [naringin, Naringin] please.
Completion: 12.6

###

experiment: Single-dose pharmacokinetics in rats (plasma, UHPLC/MS/MS); format: in vivo, Sprague Dawley rats; conditions: both sexes, Sprague Dawley, rat, plasma, po, 42 mg/kg
property: AUC(0-inf)
Your answer should be a number followed by the unit of measure.

Prompt: Report AUC(0-inf) for C[C@@H]1O[C@@H](O[C@H]2[C@H](Oc3cc(O)c4c(c3)O[C@H](c3ccc(O)cc3)CC4=O)O[C@H](CO)[C@@H](O)[C@@H]2O)[C@H](O)[C@H](O)[C@H]1O [naringin, Naringin] please.
Completion: 45.1 ng·h/mL

###

Could you please report measured CavSS for the items listed next?
Assay: Multiple-dose pharmacokinetics in healthy humans
Type: in vivo, human
Settings: naringin 160 mg multiple dose, human, female
Method: Naringin and placebo tablets were identical in appearance and participants, care providers, and those assessing outcomes were blinded to the study drug assignment. […] Human feces were collected in storage boxes, weighed, and recorded from 12 h before administration to 72 h postadministration. […] The compounds were detected by multiple reaction monitoring in the negative ion electrospray mode. […] All pharmacokinetic and excretion parameters were expressed as mean ± standard deviation (SD). […]
Answer with a number only, understood to be in µg/mL.

Prompt: Report CavSS for C[C@@H]1O[C@@H](O[C@H]2[C@H](Oc3cc(O)c4c(c3)O[C@H](c3ccc(O)cc3)CC4=O)O[C@H](CO)[C@@H](O)[C@@H]2O)[C@H](O)[C@H](O)[C@H]1O [naringin, Naringin] please.
Completion: 0.00174

Prompt: Report CavSS for O=C1C[C@@H](c2ccc(O)cc2)Oc2cc(O)cc(O)c21 [naringenin, Naringenin] please.
Completion: 0.0226

###

assay: Single-dose pharmacokinetics in dogs (plasma, UHPLC/MS/MS); type: in vivo, Beagle dogs; settings: both sexes, beagle, dog, plasma, iv, 12.4 mg/kg; read-out: MRT0-∞
property: MRT inf (min)
Answer with a number only, understood to be in min.

Prompt: Report MRT inf for C[C@@H]1O[C@@H](O[C@H]2[C@H](Oc3cc(O)c4c(c3)O[C@H](c3ccc(O)cc3)CC4=O)O[C@H](CO)[C@@H](O)[C@@H]2O)[C@H](O)[C@H](O)[C@H]1O [naringin, Naringin] please.
Completion: 43.6

###

assay: Single-dose pharmacokinetics in rats (plasma, UHPLC/MS/MS); type: in vivo, Sprague Dawley rats; details: both sexes, Sprague Dawley, rat, plasma, po, 21 mg/kg
property: AUC(0-t) (ng·h/mL)
Answer with a number only, understood to be in ng·h/mL.

Prompt: Report AUC(0-t) for C[C@@H]1O[C@@H](O[C@H]2[C@H](Oc3cc(O)c4c(c3)O[C@H](c3ccc(O)cc3)CC4=O)O[C@H](CO)[C@@H](O)[C@@H]2O)[C@H](O)[C@H](O)[C@H]1O please.
Completion: 34.2

###

experiment: Single ascending dose and food-effect pharmacokinetics of naringin tablets in healthy humans; assay type: in vivo, human; conditions: both sexes, human, plasma, po, 80 mg, naringin 80 mg p.o. single dose
property: Tmax (h)
Answer with a number only, understood to be in h.

Prompt: Report Tmax for C[C@@H]1O[C@@H](O[C@H]2[C@H](Oc3cc(O)c4c(c3)O[C@H](c3ccc(O)cc3)CC4=O)O[C@H](CO)[C@@H](O)[C@@H]2O)[C@H](O)[C@H](O)[C@H]1O please.
Completion: 2.09

###

assay: Single-dose pharmacokinetics in dogs (plasma, UHPLC/MS/MS); format: in vivo, Beagle dogs; details: both sexes, beagle, dog, plasma, po, 49.6 mg/kg
property: AUC(0-t) (ng·h/mL)
Answer with a number only, understood to be in ng·h/mL.

Prompt: Report AUC(0-t) for C[C@@H]1O[C@@H](O[C@H]2[C@H](Oc3cc(O)c4c(c3)O[C@H](c3ccc(O)cc3)CC4=O)O[C@H](CO)[C@@H](O)[C@@H]2O)[C@H](O)[C@H](O)[C@H]1O please.
Completion: 211

###

assay: Single-dose pharmacokinetics in rats (plasma, UHPLC/MS/MS); assay type: in vivo, Sprague Dawley rats; conditions: both sexes, Sprague Dawley, rat, plasma, iv, 42 mg/kg
Could you please report measured AUC(0-t) for the items listed next?
Answer with a number only, understood to be in ng·h/mL.

Prompt: Report AUC(0-t) for O=C1C[C@@H](c2ccc(O)cc2)Oc2cc(O)cc(O)c21 [naringenin, Naringenin] please.
Completion: 2360

Prompt: Report AUC(0-t) for C[C@@H]1O[C@@H](O[C@H]2[C@H](Oc3cc(O)c4c(c3)O[C@H](c3ccc(O)cc3)CC4=O)O[C@H](CO)[C@@H](O)[C@@H]2O)[C@H](O)[C@H](O)[C@H]1O [naringin, Naringin] please.
Completion: 18100

###

assay: Single ascending dose and food-effect pharmacokinetics of naringin tablets in healthy humans; format: in vivo, human; settings: both sexes, human, plasma, po, 80 mg, naringin 80 mg p.o. single dose, human; read-out: MRT0-t
property: MRT last (h)
Answer with a number only, understood to be in h.

Prompt: Report MRT last for C[C@@H]1O[C@@H](O[C@H]2[C@H](Oc3cc(O)c4c(c3)O[C@H](c3ccc(O)cc3)CC4=O)O[C@H](CO)[C@@H](O)[C@@H]2O)[C@H](O)[C@H](O)[C@H]1O please.
Completion: 2.8

###

test: Single-dose pharmacokinetics in rats (plasma, UHPLC/MS/MS); type: in vivo, Sprague Dawley rats; settings: both sexes, Sprague Dawley, rat, plasma, po, 168 mg/kg
property: AUC(0-t) (ng·h/mL)
Answer with a number only, understood to be in ng·h/mL.

Prompt: Report AUC(0-t) for C[C@@H]1O[C@@H](O[C@H]2[C@H](Oc3cc(O)c4c(c3)O[C@H](c3ccc(O)cc3)CC4=O)O[C@H](CO)[C@@H](O)[C@@H]2O)[C@H](O)[C@H](O)[C@H]1O please.
Completion: 140

###

test: Single-dose pharmacokinetics in dogs (plasma, UHPLC/MS/MS); type: in vivo, Beagle dogs; details: female, Beagle, dog, plasma, po, 3.1 mg/kg
property: AUC(0-t) (ng·h/mL)
Answer with a number only, understood to be in ng·h/mL.

Prompt: Report AUC(0-t) for C[C@@H]1O[C@@H](O[C@H]2[C@H](Oc3cc(O)c4c(c3)O[C@H](c3ccc(O)cc3)CC4=O)O[C@H](CO)[C@@H](O)[C@@H]2O)[C@H](O)[C@H](O)[C@H]1O please.
Completion: 88.5

###

assay: Single-dose pharmacokinetics in dogs (plasma, UHPLC/MS/MS); assay type: in vivo, Beagle dogs; details: male, Beagle, dog, plasma, po, 12.4 mg/kg
property: Tmax (h)
Answer with a number only, understood to be in h.

Prompt: Report Tmax for C[C@@H]1O[C@@H](O[C@H]2[C@H](Oc3cc(O)c4c(c3)O[C@H](c3ccc(O)cc3)CC4=O)O[C@H](CO)[C@@H](O)[C@@H]2O)[C@H](O)[C@H](O)[C@H]1O [naringin, Naringin] please.
Completion: 1

###

assay: Single-dose pharmacokinetics in rats (plasma, UHPLC/MS/MS); type: in vivo, Sprague Dawley rats; conditions: male, Sprague Dawley, rat, plasma, po, 42 mg/kg
property: Tmax
Your answer should be a number followed by the unit of measure.

Prompt: Report Tmax for C[C@@H]1O[C@@H](O[C@H]2[C@H](Oc3cc(O)c4c(c3)O[C@H](c3ccc(O)cc3)CC4=O)O[C@H](CO)[C@@H](O)[C@@H]2O)[C@H](O)[C@H](O)[C@H]1O please.
Completion: 39 min
